Attribution: ChEMBL document CHEMBL4706775

- tested.system: Sodium channel protein type 8 subunit alpha (Homo sapiens, UniProt Q9UQD0)
- Sequence (Q9UQD0 whole entry): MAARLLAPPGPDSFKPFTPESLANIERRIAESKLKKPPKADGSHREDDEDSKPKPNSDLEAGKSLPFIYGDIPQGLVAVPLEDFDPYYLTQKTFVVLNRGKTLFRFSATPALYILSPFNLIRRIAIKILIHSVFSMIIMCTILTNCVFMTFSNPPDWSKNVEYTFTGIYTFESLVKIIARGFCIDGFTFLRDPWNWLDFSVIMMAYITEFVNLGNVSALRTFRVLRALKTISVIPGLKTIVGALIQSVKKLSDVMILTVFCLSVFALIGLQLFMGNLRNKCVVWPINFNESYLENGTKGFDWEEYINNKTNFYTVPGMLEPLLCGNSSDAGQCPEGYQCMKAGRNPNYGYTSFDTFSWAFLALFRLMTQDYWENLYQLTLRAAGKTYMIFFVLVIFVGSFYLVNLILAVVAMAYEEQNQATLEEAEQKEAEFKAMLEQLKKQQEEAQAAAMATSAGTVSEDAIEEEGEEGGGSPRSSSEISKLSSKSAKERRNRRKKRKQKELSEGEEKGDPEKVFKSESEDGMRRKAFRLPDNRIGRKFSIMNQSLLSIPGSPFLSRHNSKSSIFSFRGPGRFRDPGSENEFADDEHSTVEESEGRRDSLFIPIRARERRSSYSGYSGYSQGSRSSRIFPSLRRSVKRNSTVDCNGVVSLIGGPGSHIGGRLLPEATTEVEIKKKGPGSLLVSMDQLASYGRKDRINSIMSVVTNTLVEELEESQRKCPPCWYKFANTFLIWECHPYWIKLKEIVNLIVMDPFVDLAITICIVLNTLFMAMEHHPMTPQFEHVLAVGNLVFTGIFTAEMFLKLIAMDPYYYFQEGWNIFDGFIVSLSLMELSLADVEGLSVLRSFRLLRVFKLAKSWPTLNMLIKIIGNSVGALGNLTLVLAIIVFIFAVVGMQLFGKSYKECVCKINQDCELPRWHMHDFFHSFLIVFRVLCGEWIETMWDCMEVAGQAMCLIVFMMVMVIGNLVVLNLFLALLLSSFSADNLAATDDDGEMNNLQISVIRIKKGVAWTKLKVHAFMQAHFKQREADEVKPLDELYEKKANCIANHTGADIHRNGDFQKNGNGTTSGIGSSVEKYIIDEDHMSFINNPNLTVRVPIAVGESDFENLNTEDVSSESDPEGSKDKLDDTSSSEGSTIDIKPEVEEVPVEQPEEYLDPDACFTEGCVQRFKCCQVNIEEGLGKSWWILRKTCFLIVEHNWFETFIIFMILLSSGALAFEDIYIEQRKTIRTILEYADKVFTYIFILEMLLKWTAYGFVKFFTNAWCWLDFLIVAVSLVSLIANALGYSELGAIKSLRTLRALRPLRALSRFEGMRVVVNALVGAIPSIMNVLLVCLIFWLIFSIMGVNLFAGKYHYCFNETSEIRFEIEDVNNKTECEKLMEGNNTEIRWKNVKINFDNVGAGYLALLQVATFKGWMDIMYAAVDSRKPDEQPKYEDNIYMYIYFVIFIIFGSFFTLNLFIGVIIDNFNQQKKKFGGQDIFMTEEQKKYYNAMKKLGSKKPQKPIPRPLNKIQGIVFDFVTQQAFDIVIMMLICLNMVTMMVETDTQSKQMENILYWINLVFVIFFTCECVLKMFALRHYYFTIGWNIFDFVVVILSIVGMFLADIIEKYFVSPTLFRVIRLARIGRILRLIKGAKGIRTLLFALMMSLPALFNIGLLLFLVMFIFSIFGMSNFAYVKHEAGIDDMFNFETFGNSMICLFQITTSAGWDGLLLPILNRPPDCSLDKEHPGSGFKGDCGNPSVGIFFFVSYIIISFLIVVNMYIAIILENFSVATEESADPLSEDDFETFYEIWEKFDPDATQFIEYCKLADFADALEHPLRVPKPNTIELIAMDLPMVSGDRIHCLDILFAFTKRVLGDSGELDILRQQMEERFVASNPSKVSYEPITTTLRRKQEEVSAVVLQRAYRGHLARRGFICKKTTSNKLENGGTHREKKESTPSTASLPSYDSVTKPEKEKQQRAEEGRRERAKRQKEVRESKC
- test: Inhibition of human Nav1.6 alpha expressed in HEK293 cells incubated for 5 mins with 6 consecutive train pulses to -10 mV at 0.1 Hz and holding potential of -65 mV by Qube-automated patch clamp assay
- Format: ADME, cell-based
measured.metric: IC50

get_value(item= CC1(CNc2cc(F)c(S(=O)(=O)Nc3nccs3)cc2Cl)CCCN1 (stereo in doubt; 4) , readout=IC50) returns 2.08 µM

Data point: `CN[C@H](CNc1cc(F)c(S(=O)(=O)Nc2nccs2)cc1Cl)Cc1ccccc1` ; IC50 = > 34 µM

// IC50 lookup, compound = `CN[C@H](CNc1cc(F)c(S(=O)(=O)Nc2ncc(F)s2)cc1Cl)C[Si](C)(C)C` , result: 3.13 µM

Entry under test: `N[C@H](CNc1cc(F)c(S(=O)(=O)Nc2nccs2)cc1Cl)Cc1ccccc1` . Its IC50 was > 34 µM

Record summary for O=S(=O)(Nc1nccs1)c1cc(Cl)c(NCC2CCCN2)cc1F (stereo in doubt; 6) : reported IC50 = > 34 µM

IC50 for `CN[C@H](CNc1cc(F)c(S(=O)(=O)Nc2ncc(F)s2)cc1Cl)CC12CC(C1)C2` is > 34 µM

Data point: `CN[C@H](CNc1cc(F)c(S(=O)(=O)Nc2ncc(F)s2)cc1Cl)CC1(C)CC1` ; IC50 = > 34 µM
